Test system: IGROV-1
assay_info: Growth inhibition of human IGROV1 cells after 48 hrs by sulforhodamine B assay
Type: functional
experimental_parameters: IGROV-1, 48 h
readout_kind: GI50 (nM)
Write the value in nM as a bare number.

// below: answered compounds
O=C(Nc1cccc(-n2cc(-c3ccncc3)c(-c3ccc(Cl)c(O)c3)n2)c1)Nc1cc(C(F)(F)F)cc(C(F)(F)F)c1    896
O=C(Nc1cccc(-n2cc(-c3ccncc3)c(-c3ccc(Cl)c(O)c3)n2)c1)Nc1cccc(C(F)(F)F)c1    1640
O=C(Nc1cccc(-n2cc(-c3ccncc3)c(-c3ccc(Cl)c(O)c3)n2)c1)c1ccc(N2CCOCC2)c(C(F)(F)F)c1    9420
COc1cc(-c2nn(-c3cccc(NC(=O)c4ccc(N5CCOCC5)c(C(F)(F)F)c4)c3)cc2-c2ccncc2)ccc1Cl    437
COc1cc(-c2nn(-c3cccc(NC(=O)Nc4cccc(C(F)(F)F)c4)c3)cc2-c2ccncc2)ccc1Cl    1060

Continue with the compound presented below.
Given "O=C(Nc1cccc(-n2cc(-c3ccncc3)c(-c3ccc(Cl)c(O)c3)n2)c1)Nc1ccc(Cl)c(Cl)c1" , state its recorded GI50.
1770
